B1: tRNA (parent)
chain: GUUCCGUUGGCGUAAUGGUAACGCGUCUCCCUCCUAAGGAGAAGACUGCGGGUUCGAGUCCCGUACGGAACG

variants of: B1; assay: yeast fitness relative to wild type (ratio to wild type); higher = fitter; tRNA-Arg(CCU), competitive growth, 37 C, YPD
Fewer inactive variants are shown than the library holds.
Measured Endpoint: yeast fitness

Variant Identifier: A15G C29U C34G A40C
Observed Result: 0.694
//
Variant Identifier: G10C C31U
Observed Result: 0.78
//
Variant Identifier: C4G G17A G50A C55U G67C
Observed Result: ≤ 0.5
//
Variant Identifier: C30G G68A
Observed Result: 0.698
//
Variant Identifier: U7A A15C C27A C61G
Observed Result: ≤ 0.5
//
Variant Identifier: C22U G25C C31U
Observed Result: 0.625
//
Variant Identifier: C24A A40U A43U C61G G68U
Observed Result: 0.597
//
Variant Identifier: G9A C27U A36G
Observed Result: 0.59
//
Variant Identifier: A15U U32A G50A G51A G56C C61G C62U
Observed Result: ≤ 0.5
//
Variant Identifier: U7C C34U C66U
Observed Result: ≤ 0.5
//
Variant Identifier: C5U A37C G52C
Observed Result: ≤ 0.5
//
Variant Identifier: C62U G63C
Observed Result: 0.752
//
Variant Identifier: C5G C22U A36C A42G
Observed Result: ≤ 0.5
//
Variant Identifier: A14C A42G U47C
Observed Result: ≤ 0.5
//
Variant Identifier: A45U C60U G68A
Observed Result: 0.575
//
Variant Identifier: C11U A21U G50C
Observed Result: 0.788
//
Variant Identifier: C30G C34G G63C
Observed Result: ≤ 0.5
//
Variant Identifier: A36C G68A
Observed Result: 0.56
//
Variant Identifier: A20U C27U U32C G52C
Observed Result: ≤ 0.5
//
Variant Identifier: C34A A40C C61A
Observed Result: ≤ 0.5
//
Variant Identifier: U8G G17A C24G G58C
Observed Result: ≤ 0.5
//
Variant Identifier: G56C A65C
Observed Result: 0.754
//
Variant Identifier: C4G C5U
Observed Result: 0.751
//
Variant Identifier: U2C A57G C66G
Observed Result: ≤ 0.5
//
Variant Identifier: G6C G10C C22G C30U C34U A36U
Observed Result: 0.517
//
Variant Identifier: A21U G25C A37G A43G A65G
Observed Result: ≤ 0.5
//
Variant Identifier: C4A U16C U35G A45U G51A
Observed Result: ≤ 0.5
//
Variant Identifier: G56C G63A
Observed Result: 0.571
//
Variant Identifier: U19A C30U G38C U53G
Observed Result: ≤ 0.5
//
Variant Identifier: U7A A65U
Observed Result: 0.996
//
Variant Identifier: U8C C33U A70U
Observed Result: ≤ 0.5
//
Variant Identifier: C4G C22G A43U A57C U59C
Observed Result: ≤ 0.5
//
Variant Identifier: A15U A42G C46G C61A
Observed Result: ≤ 0.5
//
Variant Identifier: U13A G50C
Observed Result: 0.653
//
Variant Identifier: A20G C60A
Observed Result: 0.751
//
Variant Identifier: C5A G41A G56C A65C
Observed Result: ≤ 0.5
//
Variant Identifier: A15U U64A
Observed Result: 0.709
//
Variant Identifier: U3A C30U A42G C61U
Observed Result: 0.602
//
Variant Identifier: C4U A42C
Observed Result: 0.912
//
Variant Identifier: U3C C30G A42C
Observed Result: ≤ 0.5
//
Variant Identifier: C11G C27G A70G
Observed Result: ≤ 0.5
//
Variant Identifier: C5G C61U U64G
Observed Result: 0.87
//
Variant Identifier: C4U C5G U28C A70C
Observed Result: 0.637
//
Variant Identifier: U7G G10C
Observed Result: 0.709
//
Variant Identifier: C5U U8C G41C
Observed Result: 0.542
//
Variant Identifier: G10A A14G A36G
Observed Result: ≤ 0.5
//
Variant Identifier: G6C C62U
Observed Result: 0.879
//
Variant Identifier: G23A C31U A70U
Observed Result: 0.528
//
Variant Identifier: C5U A20C C27U G39A G56A G58C
Observed Result: ≤ 0.5
//
Variant Identifier: G9C C31G A40C
Observed Result: 0.597
//
Variant Identifier: C4U U32A A69U
Observed Result: 0.601
//
Variant Identifier: U28C C33A A42C A45U A69C
Observed Result: 0.622
//
Variant Identifier: C22U C49G
Observed Result: 0.87
//
Variant Identifier: A20G C33G G56A
Observed Result: 0.639
//
Variant Identifier: U7C C61A
Observed Result: 0.678
//
Variant Identifier: A21C U59A A65U
Observed Result: ≤ 0.5
//
Variant Identifier: C11U C31G C34G A43U G68C A69G
Observed Result: 0.532
//
Variant Identifier: U32G G39C G52C C61U
Observed Result: ≤ 0.5
//
Variant Identifier: A14C C34U A37G
Observed Result: 0.507
//
Variant Identifier: C27G C31U A57G
Observed Result: 0.562
//
Variant Identifier: C4U G12C U28G C62G A70U
Observed Result: ≤ 0.5
//
Variant Identifier: C33A A70U
Observed Result: 0.655
//
Variant Identifier: C33U A45U
Observed Result: 0.837
//
Variant Identifier: G6A A36U A37G A40C C66U
Observed Result: ≤ 0.5
//
Variant Identifier: G6A A69C
Observed Result: 0.866
//
Variant Identifier: C11A G25A
Observed Result: 0.572
//
Variant Identifier: C55U C60G
Observed Result: ≤ 0.5
//
Variant Identifier: U2G A21G A40G
Observed Result: ≤ 0.5
//
Variant Identifier: A15G A21U A36U C49U G52C C62A G67A
Observed Result: ≤ 0.5
//
Variant Identifier: A15G C33G
Observed Result: 0.732
//
Variant Identifier: U19C G63A
Observed Result: 0.918
//
Variant Identifier: U47A G51A C55U
Observed Result: 0.642
//
Variant Identifier: A14G C29G C46U A57G C61U
Observed Result: ≤ 0.5
//
Variant Identifier: C4A C30G A45C C61G
Observed Result: ≤ 0.5
//
Variant Identifier: U26A G44C C55U G67U
Observed Result: 0.759
//
Variant Identifier: A43C A45G
Observed Result: 1.02
//
Variant Identifier: A14U G50C U53A A57U A65U
Observed Result: 0.687
//
Variant Identifier: A15G A45U G48A
Observed Result: 0.636
//
Variant Identifier: C5U A14U G17C A36U
Observed Result: ≤ 0.5
//
Variant Identifier: C24G C33U U47G
Observed Result: ≤ 0.5
//
Variant Identifier: C29A G67A
Observed Result: 0.605
//
Variant Identifier: U13A C30U C55G G58C
Observed Result: 0.56
//
Variant Identifier: A37U A42G
Observed Result: 0.588
//
Variant Identifier: C24U C34U A70G
Observed Result: 0.592
//
Variant Identifier: U3A U35A A42C
Observed Result: 0.629
//
Variant Identifier: C11A C31G A69U
Observed Result: ≤ 0.5
//
Variant Identifier: G6C G17A C30U A42C A65G C66G G68A
Observed Result: ≤ 0.5
//
Variant Identifier: C22U C30A A42C G58A
Observed Result: ≤ 0.5
//
Variant Identifier: C34A A43C A65C
Observed Result: ≤ 0.5
//
Variant Identifier: U19A A40G C55G
Observed Result: ≤ 0.5
//
Variant Identifier: C5A C11G C55U C61A
Observed Result: ≤ 0.5
